Ref: PubChem BioAssay (EPA / NIEHS)

- TARGET_OR_TEST_SYSTEM: Glucocorticoid receptor (Homo sapiens) (UniProt P04150)
- Sequence (P04150 whole entry, looked up): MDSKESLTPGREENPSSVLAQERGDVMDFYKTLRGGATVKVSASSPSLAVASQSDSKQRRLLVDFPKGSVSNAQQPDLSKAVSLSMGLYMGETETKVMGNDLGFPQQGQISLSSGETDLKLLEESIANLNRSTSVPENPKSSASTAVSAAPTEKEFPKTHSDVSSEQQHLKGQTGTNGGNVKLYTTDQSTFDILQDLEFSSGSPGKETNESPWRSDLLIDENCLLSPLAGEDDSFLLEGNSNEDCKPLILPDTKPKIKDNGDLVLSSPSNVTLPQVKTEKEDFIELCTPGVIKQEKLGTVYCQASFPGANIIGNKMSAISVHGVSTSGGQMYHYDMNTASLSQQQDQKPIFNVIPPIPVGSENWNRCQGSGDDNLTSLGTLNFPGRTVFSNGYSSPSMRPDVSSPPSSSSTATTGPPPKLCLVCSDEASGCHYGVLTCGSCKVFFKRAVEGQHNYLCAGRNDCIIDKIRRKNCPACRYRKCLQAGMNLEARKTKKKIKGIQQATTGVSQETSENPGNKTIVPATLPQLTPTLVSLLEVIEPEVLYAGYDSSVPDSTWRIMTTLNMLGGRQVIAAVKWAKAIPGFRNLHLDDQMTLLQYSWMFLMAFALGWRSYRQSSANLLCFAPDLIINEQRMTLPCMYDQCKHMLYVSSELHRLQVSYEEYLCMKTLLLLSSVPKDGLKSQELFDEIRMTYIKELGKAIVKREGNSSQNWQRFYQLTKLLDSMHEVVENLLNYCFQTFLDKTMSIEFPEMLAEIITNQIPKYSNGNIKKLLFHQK
- TEST_DESCRIPTION: NVS_NR_hGR: NovaScreen (NVS) Nuclear Receptor Binding Assay for human Glucocorticoid Receptor (GR) (AID 2283363);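 as to AC50: activity is loss of specific radioligand binding signal relative to DMSO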
- Procedure: NVS_NR_hGR is a biochemical, single-readout assay that uses extracted gene-proteins in a cell-free assay. Measurements were taken 16 hours after chemical dosing in a 96-well plate.NVS_NR_hGR is one of one assay component(s) measured or calculated from the NVS_NR_hGR assay. […] This assay endpoint, NVS_NR_hGR, was analyzed in the positive analysis fitting direction relative to DMSO as the negative control and baseline of activity. […]
Inconclusive results are not listed. The source made the active and inactive calls. The calls were made as follows: active = hit-call score of the fitted dose curve at least 0.9, where 1 is the maximum; inconclusive = response in the unintended direction; inactive = score below 0.9.
MEASUREMENT_LABEL: AC50

Sample records with AC50:
- COMPOUND: "CCCCC(CC)COC(=O)c1ccccc1C(=O)OCC(CC)CCCC (configuration not stated)"
  TARGET_OR_TEST_SYSTEM: "Glucocorticoid receptor (Homo sapiens) (UniProt P04150)"
  AC50: "8.8 µM (active)"
- COMPOUND: "CNC(=S)S"
  TARGET_OR_TEST_SYSTEM: "Glucocorticoid receptor (Homo sapiens) (UniProt P04150)"
  AC50: "inactive"
- COMPOUND: "CON(C)C(=O)Nc1ccc(Cl)c(Cl)c1"
  TARGET_OR_TEST_SYSTEM: "Glucocorticoid receptor (Homo sapiens) (UniProt P04150)"
  AC50: "8.61 µM (active)"
- COMPOUND: "CCNc1nc(Cl)nc(NC(C)C)n1"
  TARGET_OR_TEST_SYSTEM: "Glucocorticoid receptor (Homo sapiens) (UniProt P04150)"
  AC50: "inactive"
- COMPOUND: "COc1ccc(C(c2ccc(OC)cc2)C(Cl)(Cl)Cl)cc1"
  TARGET_OR_TEST_SYSTEM: "Glucocorticoid receptor (Homo sapiens) (UniProt P04150)"
  AC50: "inactive"
- COMPOUND: "COC(=O)c1ccccc1C(=O)OC"
  TARGET_OR_TEST_SYSTEM: "Glucocorticoid receptor (Homo sapiens) (UniProt P04150)"
  AC50: "inactive"

Fill in AC50 for record C#CCOS(=O)OC1CCCCC1Oc1ccc(C(C)(C)C)cc1 (configuration not stated)
16.5 µM (active)

Kindly indicate its recorded AC50. Item: CCCC1COC(Cn2cncn2)(c2ccc(Cl)cc2Cl)O1 (configuration not stated)
10.5 µM (active)

Look up and report measured AC50 for this entry: CNC(=O)ON=CC(C)(C)SC
inactive

Tell us which AC50 value is on record for Cc1ccc(-c2c(Cl)nc(C#N)n2S(=O)(=O)N(C)C)cc1
inactive

Return AC50 for the following compound: C=CCC1=C(C)C(OC(=O)C2C(C=C(C)C)C2(C)C)CC1=O (configuration not stated)
inactive

Provide only the value of recorded AC50 for CCNc1nc(Cl)nc(NCC)n1
inactive

###

- TEST_DESCRIPTION: BSK_CASM3C_Proliferation: Cell Proliferation Assessment in the BioMAP Diversity Plus: CASM3C Assay (AID 2283047);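 also: sulforhodamine B total protein stain as relative cell number at 560 nm; sub-confluent cells exposed 48 h before staining; fitted both ways against DMSO so gain or loss of cell number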
- EXPERIMENTAL_CONDITIONS: primary human coronary artery smooth muscle cells
Active and inactive are the calls of the source. The calls were made as follows: active = hit-call score of the fitted dose curve at least 0.9, where 1 is the maximum; inactive = score below 0.9.
Thanks in advance; please answer with one of these: 1.0 for active, 0.0 for inactive

Solved cases (5 shown):
- COMPOUND: "CC(C)Oc1cc(-n2nc(C(C)(C)C)oc2=O)c(Cl)cc1Cl"
  CLASS_NAME: 1.0
- COMPOUND: "O=C(O)c1nc(Cl)ccc1Cl"
  CLASS_NAME: 0.0
- COMPOUND: "C=CCC1=C(C)C(OC(=O)C2C(C=C(C)C)C2(C)C)CC1=O (stereo unspecified)"
  CLASS_NAME: 1.0
- COMPOUND: "Oc1ccccc1-c1ccccc1"
  CLASS_NAME: 0.0
- COMPOUND: "OC(c1ccc(Cl)cc1)(c1cncnc1)c1ccccc1Cl (stereo unspecified)"
  CLASS_NAME: 1.0

# outcome recorded in this test, key = COP(=S)(OC)Oc1nc(Cl)c(Cl)cc1Cl
1.0

Test call for this compound, please: CCNc1nc(Cl)nc(NC(C)C)n1
0.0

For O=C(O)COc1nc(Cl)c(Cl)cc1Cl , what call appears in the results of this test?
0.0

Called result for O=C(Nc1ccccc1)Nc1ccnc(Cl)c1
1.0

Hey, what did the test say about C#CCOS(=O)OC1CCCCC1Oc1ccc(C(C)(C)C)cc1 (stereo unspecified) ?
1.0

What is the recorded call for this compound in the test? CCCN(CCC)c1c([N+](=O)[O-])cc(S(N)(=O)=O)cc1[N+](=O)[O-]
1.0

What classification did CNC(=S)S end up with in this test?
0.0

Per the records of this test, what outcome belongs to CCCCNC(=O)n1c(NC(=O)OC)nc2ccccc21 ?
0.0

Dear all, I need the recorded test outcome for CCNc1nc(Cl)nc(NCC)n1 , thank you.
0.0
